Where do these numbers come from? They come from patent US20230095569A1.

Molecular target: T1, human Claudin18.2 (CLDN18.2) (human, UniProt P56856 1-261)
T1 construct: the cell line is named under assay; also called human Claudine18.2; hClaudin18.2
Test: FACS on CHOK1-18.2 cells;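 note: antibody binding to the cells detected with a fluorescently labelled secondary antibody and read out as median fluorescence intensity by flow cytometry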
FACS MFI by entry:

[
  {
    "Binder": "Ab35 (antibody, V domains shown, mouse monoclonal (hybridoma)) VH: DVFLQESGPGLVKPSQSLSLTCTVTGYSITSDYAWNWIRQFPGNKLEWVTYIGYSGTTSYNPSLKSRISITRDTSKNQFFLQLNSVSTEDTATYYCVRRGSYYGSYWFFDVWGAGTTVTVSS VL: QVVLSQSPAILSASPGEKVTMTCRASSSVSYMHWYQQKPGSSPKPWIYATSNLASGVPPHFSGSGSGTSYSLTISRVEAEDAATYYCQQWTSNPPTFGGGTKLEIK",
    "FACS MFI": 11300
  },
  {
    "Binder": "Ab19 (antibody, V domains shown, mouse monoclonal (hybridoma)) VH: EVMLVESGGDLVKPGGSLKLSCAASGFSFSRYTMSWVRQTPEKRLEWVATVSVGSGNTYYLDSVKGRFTISRDNAKNTLFLQMSSLRSEDTALYYCARMGQTQRNAVDYWGQGTSVTVSS VL: DIVMTQSPSSLSVSAGEKVTMSCKSSQSLFNSGNQKNYLAWYQQKPGQPPKLLIYGASTRESGVPDRFTGSGSGTDFTLTISNVQAEDLAVYLCQNDHSFPLTFGAGTKLEL",
    "FACS MFI": 7340
  }
]

Now for another entry.
Qu. Consider the binder shown here: Ab17 (antibody, V domains shown, mouse monoclonal (hybridoma)) VH: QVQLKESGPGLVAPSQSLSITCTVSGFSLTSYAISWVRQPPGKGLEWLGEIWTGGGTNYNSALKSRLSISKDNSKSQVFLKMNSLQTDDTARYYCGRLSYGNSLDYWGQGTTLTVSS VL: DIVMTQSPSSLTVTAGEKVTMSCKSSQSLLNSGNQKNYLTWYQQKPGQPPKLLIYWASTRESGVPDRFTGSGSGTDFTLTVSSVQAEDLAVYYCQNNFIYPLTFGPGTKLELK What is its recorded FACS MFI?
Ans. 11500
